// reported Kb per item
- Species on record: Oryctolagus cuniculus
- assay.comment: Calcium channel-blocking activity by determined by ability to antagonize calcium-induced contractions of isolated rabbit aortic strips
- Format: functional
- experimental.context: Aorta, read-out: pA2 (converted)
measurement.kind: Kb (nM)

1. COc1cc(C(C)=O)ccc1OCCCN1CCC(C(C(N)=O)(c2ccc(F)cc2)c2ccc(F)cc2)CC1 | 25.1
2. COc1ccccc1OCCCN1CCC(C(c2ccc(F)cc2)c2ccc(F)cc2)CC1 | 2.51
3. CN(CCCN1CCC(C(c2ccc(F)cc2)c2ccc(F)cc2)CC1)c1ccccc1 | 2
4. COc1cc(C(C)=O)ccc1OCCCN1CCC(=C(c2ccc(F)cc2)c2ccc(F)cc2)CC1 | 3.98
5. CCc1ccc(OCCCN2CCC(C(c3ccc(F)cc3)c3ccc(F)cc3)CC2)c(OC)c1 | 2.51
6. Fc1ccc(C(c2ccc(F)cc2)C2CCN(CCCOc3ccc(Cl)cc3)CC2)cc1 | 2
7. COc1ccc(CCN(C)CCCC(C#N)(c2ccc(OC)c(OC)c2)C(C)C)cc1OC (centres undefined) [VERAPAMIL] | 10
8. Fc1ccc(C(c2ccc(F)cc2)C2CCN(CCCCc3ccccc3)CC2)cc1 | 2.51
9. Fc1ccc(C(c2ccc(F)cc2)C2CCN(CCCOc3cccc4ccccc34)CC2)cc1 | 5.01

* * *

- Organism: Oryctolagus cuniculus
- assay.comment: Calcium channel-blocking activity by determined by ability to antagonize calcium-induced contractions of isolated rabbit aortic strips
- Format: functional
- experimental.context: Aorta, read-out: pA2 (converted)
// reported Kb per item
measurement.kind: Kb (nM)

1) COc1cc(C(C)=O)ccc1OCCCN1CCC(C(c2ccc(F)c(F)c2)c2ccc(F)c(F)c2)CC1 | 2.51
2) COc1cc(C(C)=O)ccc1OCCCN1CCC(Cc2ccc(F)cc2)CC1 | 20
3) COC(=O)C1=C(C)NC(C)=C(C(=O)OC)C1c1ccccc1[N+](=O)[O-] | 0.158
4) COc1cc(C(C)=O)ccc1OCCCN1CCC(C(c2ccc(F)cc2)c2ccc(F)cc2)CC1 | 1.58
5) Fc1ccc(C(c2ccc(F)cc2)C2CCN(CCCSc3ccccc3)CC2)cc1 | 3.16
6) COc1cc(C(C)=O)ccc1OCCCN1CCC(C(c2ccccc2)c2ccccc2)CC1 | 6.31
7) COc1cc(C(C)=O)ccc1OCCCN1CCC(C(O)(c2ccc(F)cc2)c2ccc(F)cc2)CC1 | 10
8) COc1cc(C(C)=O)ccc1OCCCN1CCC(C(c2ccc(C)cc2)c2ccc(C)cc2)CC1 | 15.8
9) CC(=O)Nc1ccc(OCCCN2CCC(C(c3ccc(F)cc3)c3ccc(F)cc3)CC2)cc1 | 12.6
10) Fc1ccc(C(c2ccc(F)cc2)C2CCN(CCCOc3ccc4ccccc4c3)CC2)cc1 | 7.94
11) COc1cc(C(C)=O)ccc1OCCCN1CCC(C(c2ccc(F)cc2F)c2ccc(F)cc2F)CC1 | 15.8
12) COc1cc(C(C)=O)ccc1OCCCN1CCC(C(c2ccc(F)cc2)C2CCCCC2)CC1 (stereo not given) | 5.01
13) COc1cc(C(=O)O)ccc1OCCCN1CCC(C(c2ccc(F)cc2)c2ccc(F)cc2)CC1 | 79.4
14) Fc1ccc(OCCCN2CCC(C(c3ccc(F)cc3)c3ccc(F)cc3)CC2)cc1 | 1.26
15) COc1cc(C(C)=O)ccc1OCCCCN1CCC(C(c2ccc(F)cc2)c2ccc(F)cc2)CC1 | 2.51
